// provenance: patent US20210196796A1

experimentalTarget: T1, orthogonal hCD122 receptor (hoRb), hCD122 with H133D and Y134F (human, UniProt P14784 27-550); note: reference of the scale not given here
T1 sequence: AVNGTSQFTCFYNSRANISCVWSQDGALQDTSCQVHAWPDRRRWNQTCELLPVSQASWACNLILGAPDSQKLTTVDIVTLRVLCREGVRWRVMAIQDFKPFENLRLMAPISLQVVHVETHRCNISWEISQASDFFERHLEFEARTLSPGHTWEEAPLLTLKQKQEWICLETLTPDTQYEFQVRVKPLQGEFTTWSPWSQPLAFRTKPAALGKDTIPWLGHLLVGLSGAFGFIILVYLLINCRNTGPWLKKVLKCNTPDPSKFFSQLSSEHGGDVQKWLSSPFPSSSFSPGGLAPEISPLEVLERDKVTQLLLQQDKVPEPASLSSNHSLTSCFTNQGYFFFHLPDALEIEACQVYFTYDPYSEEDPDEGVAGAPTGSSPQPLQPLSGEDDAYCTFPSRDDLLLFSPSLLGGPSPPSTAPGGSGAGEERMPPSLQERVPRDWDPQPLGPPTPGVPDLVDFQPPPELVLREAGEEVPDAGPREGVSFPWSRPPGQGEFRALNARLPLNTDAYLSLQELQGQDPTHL
procedureText: cell-based or functional assay
Consider the reported Relative Proliferation Fold Change 3F8 1:10 of an entry and match it to a band in 1: < 20 fold; 2: ≥ 20 fold and < 30 fold; 3: ≥ 30 fold

q: Band for M39L, SQVLKA (ligand) APTSSSTKKTQLQLSQLLVLLKAILNGINNYKNPKLTRLLTFKFYMPKKATELKHLQCLEEELKPLEEVLNLAQSKNFHLRPRDLISNINVIVLELKGSETTFMCEYADETATIVEFLNRWITFCQSIISTLT ?
a: 3

q: Band for Q126R, SQVLKA (ligand) APTSSSTKKTQLQLSQLLVLLKAILNGINNYKNPKLTRMLTFKFYMPKKATELKHLQCLEEELKPLEEVLNLAQSKNFHLRPRDLISNINVIVLELKGSETTFMCEYADETATIVEFLNRWITFCRSIISTLT ?
a: 1

q: Band for R38G, SQVLKA (ligand) APTSSSTKKTQLQLSQLLVLLKAILNGINNYKNPKLTGMLTFKFYMPKKATELKHLQCLEEELKPLEEVLNLAQSKNFHLRPRDLISNINVIVLELKGSETTFMCEYADETATIVEFLNRWITFCQSIISTLT ?
a: 2

q: Band for T113N, SQVLKA (ligand) APTSSSTKKTQLQLSQLLVLLKAILNGINNYKNPKLTRMLTFKFYMPKKATELKHLQCLEEELKPLEEVLNLAQSKNFHLRPRDLISNINVIVLELKGSETTFMCEYADETANIVEFLNRWITFCQSIISTLT ?
a: 3

q: Band for Q126K, SQVLKA (ligand) APTSSSTKKTQLQLSQLLVLLKAILNGINNYKNPKLTRMLTFKFYMPKKATELKHLQCLEEELKPLEEVLNLAQSKNFHLRPRDLISNINVIVLELKGSETTFMCEYADETATIVEFLNRWITFCKSIISTLT ?
a: 1

q: Band for V91R, SQVLKA (ligand) APTSSSTKKTQLQLSQLLVLLKAILNGINNYKNPKLTRMLTFKFYMPKKATELKHLQCLEEELKPLEEVLNLAQSKNFHLRPRDLISNINRIVLELKGSETTFMCEYADETATIVEFLNRWITFCQSIISTLT ?
a: 1

q: Band for SQVLSA (ligand) APTSSSTKKTQLQLSQLLVLLSAILNGINNYKNPKLTRMLTFKFYMPKKATELKHLQCLEEELKPLEEVLNLAQSKNFHLRPRDLISNINVIVLELKGSETTFMCEYADETATIVEFLNRWITFCQSIISTLT ?
a: 2

q: Band for SQILKA (ligand) APTSSSTKKTQLQLSQLLILLKAILNGINNYKNPKLTRMLTFKFYMPKKATELKHLQCLEEELKPLEEVLNLAQSKNFHLRPRDLISNINVIVLELKGSETTFMCEYADETATIVEFLNRWITFCQSIISTLT ?
a: 3

q: Band for SQVLNA (ligand) APTSSSTKKTQLQLSQLLVLLNAILNGINNYKNPKLTRMLTFKFYMPKKATELKHLQCLEEELKPLEEVLNLAQSKNFHLRPRDLISNINVIVLELKGSETTFMCEYADETATIVEFLNRWITFCQSIISTLT ?
a: 3

q: Band for L18V, SQVLKA (ligand) APTSSSTKKTQLQLSQLVVLLKAILNGINNYKNPKLTRMLTFKFYMPKKATELKHLQCLEEELKPLEEVLNLAQSKNFHLRPRDLISNINVIVLELKGSETTFMCEYADETATIVEFLNRWITFCQSIISTLT ?
a: 1

q: Band for ΔT3, SQVLKA (ligand) APSSSTKKTQLQLSQLLVLLKAILNGINNYKNPKLTRMLTFKFYMPKKATELKHLQCLEEELKPLEEVLNLAQSKNFHLRPRDLISNINVIVLELKGSETTFMCEYADETATIVEFLNRWITFCQSIISTLT ?
a: 1

q: Band for C125A, SQVLKA (ligand) APTSSSTKKTQLQLSQLLVLLKAILNGINNYKNPKLTRMLTFKFYMPKKATELKHLQCLEEELKPLEEVLNLAQSKNFHLRPRDLISNINVIVLELKGSETTFMCEYADETATIVEFLNRWITFAQSIISTLT ?
a: 1

q: Band for SQVLKF (ligand) APTSSSTKKTQLQLSQLLVLLKFILNGINNYKNPKLTRMLTFKFYMPKKATELKHLQCLEEELKPLEEVLNLAQSKNFHLRPRDLISNINVIVLELKGSETTFMCEYADETATIVEFLNRWITFCQSIISTLT ?
a: 3
